Field: log10(Kd). Provide a value for each of the binders that follow.
Biological target: T1, human ActRIIA (human, UniProt P27037 20-135, limits assumed)
T1 construct: antigen in MSD-SET; also called ACVR2A; ActR2A
T1 sequence (P27037 20-135 limits assumed): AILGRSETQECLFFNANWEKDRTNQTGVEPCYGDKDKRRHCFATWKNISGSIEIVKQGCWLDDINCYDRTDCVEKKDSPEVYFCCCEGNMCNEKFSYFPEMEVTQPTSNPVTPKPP
Assay: MSD-SET
A value of 2 here means Kd of 100 in nM, since values are log10.

Antibody Riaba (antibody, V domains shown, full-length IgG) VH: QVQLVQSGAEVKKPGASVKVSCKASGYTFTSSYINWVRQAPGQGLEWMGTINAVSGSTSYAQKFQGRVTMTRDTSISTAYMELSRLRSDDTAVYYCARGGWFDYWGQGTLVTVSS VL: QSALTQPASVSGSPGQSITISCTGTSSDVGSYNYVNWYQQHPGKAPKLMIYGVSKRDSGVSNRFSGSKSGNTASLTISGLQAEDEADYYCGTFAGGKYYGVFGGGTKLTVL    -1.85
Antibody Wurschdsalat (antibody, V domains shown, full-length IgG) VH: QVQLVQSGAEVKKPGASVKVSCKASGYTFTSSYINWVRQAPGQGLEWMGTINAVSGSTSYAQKFQGRVTMTRDESISTAYMELSRLRSDDTAVYYCARGGWFDYWGQGTLVTVSS VL: QSALTQPASVSGSPGQSITISCTGTSSDVGSYNYVNWYQQHPGKAPKLMIYGVSKRESGVSNRFSGSKSGNTASLTISGLQAEDEADYYCGTFAGGKYYGVFGGGTKLTVL    -2.30
Antibody Biiramooscht (antibody, V domains shown, full-length IgG) VH: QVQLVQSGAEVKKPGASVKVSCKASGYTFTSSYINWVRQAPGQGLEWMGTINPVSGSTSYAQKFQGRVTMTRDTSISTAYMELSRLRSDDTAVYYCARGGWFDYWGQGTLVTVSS VL: QSALTQPASVSGSPGQSITISCTGTSSDVGSYNYVNWYQQHPGKAPKLMIYGVSKRESGVSNRFSGSKSGNTASLTISGLQAEDEADYYCGTFAGGAYYGVFGGGTKLTVL    -1.55
Wurschdsalat Fab (Fab, V domains shown, Fab) VH: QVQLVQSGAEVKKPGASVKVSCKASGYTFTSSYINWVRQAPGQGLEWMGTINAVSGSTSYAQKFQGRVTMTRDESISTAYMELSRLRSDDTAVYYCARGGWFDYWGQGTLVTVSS VL: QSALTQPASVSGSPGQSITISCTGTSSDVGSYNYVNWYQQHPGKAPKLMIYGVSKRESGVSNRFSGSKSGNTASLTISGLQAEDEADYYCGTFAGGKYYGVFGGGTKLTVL    -0.90

Alright, here's another binder for you.
// field: log10(Kd); key: Antibody Fasnetsküchla (antibody, V domains shown, full-length IgG) VH: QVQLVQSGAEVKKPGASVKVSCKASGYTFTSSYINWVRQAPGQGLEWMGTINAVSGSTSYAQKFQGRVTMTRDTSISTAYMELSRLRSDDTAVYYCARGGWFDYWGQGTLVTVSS VL: QSALTQPASVSGSPGQSITISCTGTSSDVGSANYVNWYQQHPGKAPKPMIYGVSRRPSGVSNRFSGSKSGNTASLTISGLQAEDEADYYCGTFAGGKYYGVFGGGTKLTVL ; value = -1.54

Attribution: patent US20250243286A1
